- ASSAY_SYSTEM: HLA-B*15:17
- EXPERIMENTAL_DETAILS: IEDB peptide-MHC binding, purified MHC/competitive/fluorescence; filed as Kd, often an IC50 or EC50 that approximates it; bounds were set here for any values at or beyond the usual limits of such assays
- MEASUREMENT_PARAMETERS: source organism: Orthohantavirus delgaditoense
OBSERVATION_TYPE: Kd

Asked: Data request, read-out Kd, for DWMERIEDF
Given back: ≥ 20 µM

* * *

- ASSAY_SYSTEM: HLA-A*02:01
- EXPERIMENTAL_DETAILS: IEDB peptide-MHC binding, purified MHC/competitive/radioactivity; bounds were set here for any values at or beyond the usual limits of such assays
- MEASUREMENT_PARAMETERS: source organism: Human immunodeficiency virus 1
OBSERVATION_TYPE: IC50 (nM)
The response must be a number in nM with no trailing unit.

Asked: Reported IC50 for SLYNAVATL : what is it?
Given back: 29

* * *

- ASSAY_SYSTEM: HLA-A*30:02
- EXPERIMENTAL_DETAILS: IEDB peptide-MHC binding, purified MHC/competitive/fluorescence; filed as Kd, often an IC50 or EC50 that approximates it; bounds were set here for any values at or beyond the usual limits of such assays
- MEASUREMENT_PARAMETERS: source organism: Vibrio vulnificus YJ016
pKd: −log10 of the molar value.
OBSERVATION_TYPE: pKd

Asked: Give the measured pKd of SVFELSNFA .
Given back: ≤ 5.30

* * *

- ASSAY_SYSTEM: HLA-B*15:01
- EXPERIMENTAL_DETAILS: IEDB peptide-MHC binding, purified MHC/competitive/fluorescence; filed as Kd, often an IC50 or EC50 that approximates it; bounds were set here for any values at or beyond the usual limits of such assays
- MEASUREMENT_PARAMETERS: source organism: Escherichia coli 536
OBSERVATION_TYPE: pKd
The value called pKd is obtained by taking minus log10 of the concentration in mol/L.

Asked: Checklist item: pKd tested on HLA-B*15:01, entry YEDEDIIVI , value?
Given back: 5.46

* * *

- ASSAY_SYSTEM: HLA-A*03:01
- EXPERIMENTAL_DETAILS: IEDB peptide-MHC binding, purified MHC/direct/fluorescence; filed as Kd, often an IC50 or EC50 that approximates it; bounds were set here for any values at or beyond the usual limits of such assays
- MEASUREMENT_PARAMETERS: source organism: Escherichia coli O157:H7
OBSERVATION_TYPE: Kd

Asked: Which Kd value is on record for YLGTPNNTY ?
Given back: ≥ 20 µM

* * *

- ASSAY_SYSTEM: HLA-B*18:01
- EXPERIMENTAL_DETAILS: IEDB peptide-MHC binding, purified MHC/competitive/fluorescence; bounds were set here for any values at or beyond the usual limits of such assays
- MEASUREMENT_PARAMETERS: source organism: Homo sapiens
pIC50: −log10 of the molar value.
OBSERVATION_TYPE: pIC50

Asked: Can you share its pIC50? I mean this sequence: SYMMDDLELI
Given back: ≤ 4.70

* * *

- ASSAY_SYSTEM: HLA-B*40:02
- EXPERIMENTAL_DETAILS: IEDB peptide-MHC binding, purified MHC/competitive/fluorescence; bounds were set here for any values at or beyond the usual limits of such assays
- MEASUREMENT_PARAMETERS: source organism: Tarsius lariang
OBSERVATION_TYPE: IC50 (nM)
Field: numeric (nM). Do not append units.

Asked: Which IC50 value belongs to TEAEKWPFF ?
Given back: 40.5
